# subject-of-test: Vascular endothelial growth factor receptor 3 (Homo sapiens)
# experimental-conditions: at 1 µM
Assign satisfied to entries whose residual activity meets or exceeds 40%; assign not satisfied to the rest.

Record excerpt, results attached:
> print(dat)
                         compound.structure          label
1        Oc1ccc(Nc2nc(-c3ccc(Cl)cc3)cs2)cc1      satisfied
2  CCN(CC)C(=O)c1ccc(Nc2nc(OCC3CCCCC3)c3nc[nH]c3n2)cc1  not satisfied
3              Cc1ccc(S(=O)(=O)/C=C/C#N)cc1      satisfied
4  O=c1c2ccccc2[nH]c(=S)n1CCN1CCC(=C(c2ccc(F)cc2)c2ccc(F)cc2)CC1      satisfied
5      COc1cc2ncnc(Nc3ccc(O)c(Br)c3)c2cc1OC  not satisfied
6           CNc1cc2c(Nc3cccc(Br)c3)ncnc2cn1      satisfied

Prompt: Exam item: decide whether the reported residual activity for O=Nc1c(-c2c(O)[nH]c3ccccc23)[nH]c2ccccc12 is at least 40%.
Response: not satisfied

Prompt: Exam item: decide whether the reported residual activity for CC(=O)c1ccc(N2CCOCC2)cc1O is at least 40%.
Response: satisfied

Prompt: Exam item: decide whether the reported residual activity for N#C/C(=C(\N)Sc1ccc(N)cc1)c1ccccc1C(F)(F)F is at least 40%.
Response: satisfied

Prompt: Exam item: decide whether the reported residual activity for N#Cc1cnc2cnc(NCc3cccnc3)cc2c1Nc1ccc(F)c(Cl)c1 is at least 40%.
Response: not satisfied

Prompt: Exam item: decide whether the reported residual activity for O=c1cc(-c2cccc3c2Sc2ccccc2S3)oc(N2CCOCC2)c1 is at least 40%.
Response: satisfied
